Attribution: paper PMC3218832

MEASURED_ON: RELARELA (p65 homodimer) (Homo sapiens, UniProt Q04206 1-307)
Sequence (Q04206 1-307): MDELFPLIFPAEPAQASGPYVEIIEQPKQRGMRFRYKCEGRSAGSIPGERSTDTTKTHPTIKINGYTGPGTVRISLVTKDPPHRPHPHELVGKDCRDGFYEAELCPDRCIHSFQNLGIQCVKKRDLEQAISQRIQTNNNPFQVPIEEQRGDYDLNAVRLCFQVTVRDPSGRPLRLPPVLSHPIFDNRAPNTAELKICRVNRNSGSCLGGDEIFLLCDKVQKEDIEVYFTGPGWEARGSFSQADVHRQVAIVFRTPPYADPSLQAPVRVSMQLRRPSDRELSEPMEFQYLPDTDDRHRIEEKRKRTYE
ASSAY_PROTOCOL: protein binding microarray; high values mean tight binding
CONDITION_DESCRIPTION: dsDNA, one strand shown
# label = condition met if binding signal >= -0.2 z-score else condition not met

Request: Entry CGAGTTATCCT : is its binding signal no less than -0.2 z-score?
Result: condition not met

Request: // query: CAGGTCATCCT
Result: condition not met

Request: // query: AAAGAAGTCCT
Result: condition met

Request: // query: GAGTTCTCCCC
Result: condition met

Request: // query: CAGAATCTCCC
Result: condition met

Request: // query: CAAGAACCCCC
Result: condition not met

* * *

Field: binding signal. Provide a value for each of the sequences that follow.
MEASURED_ON: p52p52 homodimer (Homo sapiens, UniProt Q00653 4-332)
Sequence: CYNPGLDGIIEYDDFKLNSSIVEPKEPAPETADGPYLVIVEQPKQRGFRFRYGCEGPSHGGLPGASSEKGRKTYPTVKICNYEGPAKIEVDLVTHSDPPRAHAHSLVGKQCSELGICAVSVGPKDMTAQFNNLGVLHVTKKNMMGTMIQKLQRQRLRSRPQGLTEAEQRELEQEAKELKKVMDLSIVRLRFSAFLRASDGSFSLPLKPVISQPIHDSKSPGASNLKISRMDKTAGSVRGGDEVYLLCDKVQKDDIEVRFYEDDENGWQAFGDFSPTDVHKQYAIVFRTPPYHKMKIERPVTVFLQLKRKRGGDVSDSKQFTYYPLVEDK
ASSAY_PROTOCOL: protein binding microarray; high values mean tight binding
CONDITION_DESCRIPTION: dsDNA, one strand shown
Supply the numeric figure in z-score, leaving out any unit text.

Request: Look up binding signal: GGGATAGTCCC
Result: 2.94

Request: // query: GAGGATTCCCC
Result: 2.67

Request: // query: CGGGGCACCCC
Result: 1.21

Request: // query: GAGTGGATCCT
Result: -0.663

Request: // query: AAAAGCACCCC
Result: 0.946

Request: // query: CAGGTTTCCCT
Result: 1.21

Request: // query: GGAGGTATCCC
Result: -0.304

Request: // query: GAAGAGTTCCC
Result: -0.0634

Request: // query: GAAGACACCCC
Result: -0.303

Request: // query: CGGAGCGCCCT
Result: -0.701

Request: // query: GGAGTTCCCCT
Result: 2.83

Request: // query: GGAAAGATCCT
Result: -0.674

Request: // query: GAAAATCTCCC
Result: 0.592

Request: // query: AGAAGGGTCCC
Result: 0.0384

* * *

MEASURED_ON: RELA (p65) subunit of heterodimer;p52 subunit (Homo sapiens;Homo sapiens, UniProt Q04206;Q00653 1-307;4-332)
Sequence (Q04206 1-307, one chain of several): as the sequence (Q04206 1-307) above
ASSAY_PROTOCOL: protein binding microarray; high values mean tight binding
CONDITION_DESCRIPTION: dsDNA, one strand shown
hey, just use Y if measured binding signal is less than -0.9 z-score, otherwise N

Request: Quick check: does AAGGACGCCCT have binding signal under -0.9 z-score?
Result: Y

Request: // query: GAGAGCGCCCT
Result: Y

Request: // query: AAATTGCTCCT
Result: N

Request: // query: CGAGGGCCCCC
Result: N

Request: // query: GAGGAGGCCCT
Result: Y

Request: // query: AAAGAAGTCCT
Result: N

Request: // query: AAAAGTCTCCC
Result: N

* * *

MEASURED_ON: p50p50 homodimer (Homo sapiens, UniProt P19838 7-356)
Sequence (P19838 7-356): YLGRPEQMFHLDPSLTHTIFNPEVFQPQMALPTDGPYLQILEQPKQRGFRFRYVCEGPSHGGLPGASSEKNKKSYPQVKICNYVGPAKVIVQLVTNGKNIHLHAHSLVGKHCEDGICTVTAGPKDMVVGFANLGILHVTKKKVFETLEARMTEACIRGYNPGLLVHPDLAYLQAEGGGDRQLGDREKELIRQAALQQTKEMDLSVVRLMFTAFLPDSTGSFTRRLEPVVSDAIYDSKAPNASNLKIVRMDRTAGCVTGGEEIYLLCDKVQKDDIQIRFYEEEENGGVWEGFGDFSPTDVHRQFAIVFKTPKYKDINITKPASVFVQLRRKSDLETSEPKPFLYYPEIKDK
ASSAY_PROTOCOL: protein binding microarray; high values mean tight binding
CONDITION_DESCRIPTION: dsDNA, one strand shown
# label = T if binding signal >= -0.8 z-score else F

Request: Entry GAAGGCGTCCC : is its binding signal no less than -0.8 z-score?
Result: T

Request: // query: GAATGCCTCCT
Result: F

Request: // query: CGAGTTCTCCC
Result: T

Request: // query: GGAGTAATCCC
Result: T

Request: // query: GGGTACTCCCC
Result: T

Request: // query: GAAATAGTCCC
Result: T

Request: // query: CAGGAACTCCC
Result: T

Request: // query: AAAGGCCTCCC
Result: F

Request: // query: AAGGGCGTCCT
Result: F

Request: // query: CAGGGGACCCT
Result: T

Request: // query: AAAAGAATCCC
Result: T

Request: // query: GGAAAGATCCT
Result: F

Request: // query: CAGATGTTCCT
Result: F

Request: // query: CAATAAGTCCT
Result: F

Request: // query: CAAGGAGCCCC
Result: T

Request: // query: GAATTGTCCCC
Result: T

Request: // query: AAGTGTGTCCT
Result: F

Request: // query: GGGGTGTTCCT
Result: T

Request: // query: AAAAGGATCCT
Result: F

Request: // query: AGGTACGCCCC
Result: T

Request: // query: CAAGTAATCCC
Result: T

Request: // query: GGAATGCCCCC
Result: T

Request: // query: CAGGGGATCCC
Result: T

Request: // query: AAGGTATTCCT
Result: T

Request: // query: AAGAGCATCCT
Result: F

Request: // query: CAGAAAATCCC
Result: T

Request: // query: GAGGTGACCCC
Result: T

Request: // query: AGATATTCCCC
Result: T

Request: // query: CAATACTTCCT
Result: F

Request: // query: AGGATAGCCCT
Result: F

Request: // query: GGGGTGATCCC
Result: T

Request: // query: AGATGTTTCCC
Result: T

* * *

MEASURED_ON: RELARELA (p65 homodimer) (Homo sapiens, UniProt Q04206 1-307)
ASSAY_PROTOCOL: protein binding microarray; high values mean tight binding
CONDITION_DESCRIPTION: dsDNA, one strand shown
hey, just use 1 (yes) if measured binding signal is less than -0.3 z-score, otherwise 0 (no)

Request: Quick check: does GGATGAACCCT have binding signal under -0.3 z-score?
Result: 0 (no)

Request: // query: GGAGTTTTCCT
Result: 0 (no)

Request: // query: CAATGTCTCCC
Result: 1 (yes)

Request: // query: CAATGACTCCT
Result: 1 (yes)

Request: // query: AAAAAGCTCCT
Result: 1 (yes)

Request: // query: GAAAGACCCCC
Result: 0 (no)

Request: // query: CGGGGACCCCT
Result: 0 (no)

Request: // query: AGGAAACTCCT
Result: 0 (no)

Request: // query: GAATTATTCCC
Result: 0 (no)

Request: // query: GGATGCATCCC
Result: 0 (no)

Request: // query: CGATTAACCCT
Result: 1 (yes)

Request: // query: AAGAGCATCCT
Result: 1 (yes)

Request: // query: GAGAGCGCCCT
Result: 1 (yes)

Request: // query: GAAGTCTTCCC
Result: 0 (no)

Request: // query: CAGAGTATCCT
Result: 1 (yes)

Request: // query: AAAGATGTCCC
Result: 0 (no)

Request: // query: AAAGTTACCCT
Result: 0 (no)

Request: // query: GAGGGCTCCCC
Result: 1 (yes)

Request: // query: CGGTATGTCCT
Result: 0 (no)

Request: // query: CGGTAGTCCCC
Result: 0 (no)

Request: // query: GAAGGCATCCT
Result: 1 (yes)

* * *

MEASURED_ON: C-Rel subunit;p52 subunit (Homo sapiens;Homo sapiens, UniProt Q04864;Q00653 1-285;4-332)
Sequence 1: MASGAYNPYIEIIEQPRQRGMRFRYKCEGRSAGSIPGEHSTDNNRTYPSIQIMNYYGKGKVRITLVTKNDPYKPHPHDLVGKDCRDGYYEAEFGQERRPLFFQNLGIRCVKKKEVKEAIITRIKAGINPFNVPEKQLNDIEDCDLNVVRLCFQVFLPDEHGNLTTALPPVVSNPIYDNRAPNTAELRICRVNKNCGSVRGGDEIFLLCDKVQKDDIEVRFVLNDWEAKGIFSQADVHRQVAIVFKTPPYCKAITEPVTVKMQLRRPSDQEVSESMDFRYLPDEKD
Sequence 2: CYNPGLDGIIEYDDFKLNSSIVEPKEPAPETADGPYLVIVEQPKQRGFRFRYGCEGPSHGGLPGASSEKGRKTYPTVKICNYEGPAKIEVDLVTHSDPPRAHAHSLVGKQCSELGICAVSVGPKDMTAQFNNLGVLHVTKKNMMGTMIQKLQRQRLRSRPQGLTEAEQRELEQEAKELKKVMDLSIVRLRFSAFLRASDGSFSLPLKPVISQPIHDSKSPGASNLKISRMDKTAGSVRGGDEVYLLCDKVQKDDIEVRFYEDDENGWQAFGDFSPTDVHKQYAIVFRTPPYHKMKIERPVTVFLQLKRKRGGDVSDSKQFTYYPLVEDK
ASSAY_PROTOCOL: protein binding microarray; high values mean tight binding
CONDITION_DESCRIPTION: dsDNA, one strand shown
Classes are defined on binding signal with ranges low value: < -0.4 z-score; medium value: ≥ -0.4 z-score and < 0.5 z-score; high value: ≥ 0.5 z-score

Request: Which binding signal band matches GAGTTCTTCCT ?
Result: low value

Request: // query: AAAGAATTCCC
Result: high value

Request: // query: AAGTGAACCCT
Result: low value

Request: // query: AGAAGTCCCCC
Result: high value

Request: // query: GGGAACGCCCT
Result: medium value

Request: // query: GAGATAGTCCT
Result: low value

Request: // query: AAAGAAGTCCT
Result: low value

Request: // query: AAATTTCCCCC
Result: high value

Request: // query: GAGAAAGTCCC
Result: high value

Request: // query: GAAGGCCCCCC
Result: medium value

Request: // query: CGATATATCCC
Result: low value

Request: // query: CAGAATACCCT
Result: medium value

Request: // query: GAATAGCTCCC
Result: low value

Request: // query: AAGAATCCCCC
Result: high value

Request: // query: CAATGGTTCCT
Result: low value

Request: // query: CAGTACCCCCC
Result: high value

Request: // query: GAATGGATCCC
Result: low value

Request: // query: GGAAGAACCCC
Result: high value

Request: // query: GAAGGGACCCC
Result: medium value

Request: // query: AAAAAGCCCCC
Result: high value

Request: // query: AGGTGCACCCC
Result: high value

Request: // query: AAGTTCACCCC
Result: medium value

Request: // query: CGGTACATCCC
Result: high value

Request: // query: CGAATGATCCT
Result: low value

Request: // query: CAGGTGTTCCC
Result: medium value

Request: // query: AGGTTCGCCCT
Result: low value

Request: // query: AGATTATCCCT
Result: medium value

Request: // query: CAGTTTGCCCC
Result: high value

Request: // query: GAATATATCCC
Result: medium value

Request: // query: AGAAAGTCCCC
Result: high value

Request: // query: CAGGTCGCCCC
Result: medium value

Request: // query: AGAGGCGTCCC
Result: medium value

Request: // query: AAGTGTGTCCT
Result: low value

Request: // query: GAGGAGCCCCC
Result: medium value

Request: // query: CGATTAGTCCT
Result: low value

Request: // query: CGATGGATCCT
Result: low value

Request: // query: CAGTGGTCCCC
Result: medium value

Request: // query: AAGGTATTCCT
Result: medium value

Request: // query: GGGATGCCCCT
Result: high value

Request: // query: GAGGTTCTCCC
Result: medium value

Request: // query: CAGGACACCCT
Result: low value

Request: // query: GAGGACGTCCC
Result: medium value

Request: // query: AGGTATACCCT
Result: medium value

Request: // query: GGGGGGCCCCT
Result: high value

Request: // query: GGAATACTCCC
Result: medium value

Request: // query: CGGTGTACCCT
Result: medium value

Request: // query: AAAGGGATCCC
Result: medium value

Request: // query: AAGTGCTCCCT
Result: low value

Request: // query: AGGTTACCCCT
Result: high value

Request: // query: GAAGTGGCCCC
Result: medium value

Request: // query: AAGGTCCTCCT
Result: low value

Request: // query: AAAGTCATCCC
Result: low value

Request: // query: AGGTAGCTCCT
Result: low value

Request: // query: GAATACATCCT
Result: low value

Request: // query: GAGTAATTCCT
Result: medium value

Request: // query: CAGTGGGTCCT
Result: low value

Request: // query: GGGGTAACCCT
Result: high value

Request: // query: AAAATAACCCC
Result: high value

Request: // query: AGGTGGTCCCT
Result: medium value

Request: // query: CAATTTATCCT
Result: low value

Request: // query: GAGAATGTCCT
Result: low value

Request: // query: GGGTTTGCCCT
Result: medium value

Request: // query: AAATTGGCCCC
Result: medium value

Request: // query: AAGTTTCCCCT
Result: high value

Request: // query: CGGTAGCCCCT
Result: medium value

Request: // query: GGGTAAGTCCT
Result: high value

Request: // query: CGGGAGATCCT
Result: medium value

Request: // query: GGAAGACTCCT
Result: low value

Request: // query: GGGTGAATCCT
Result: medium value

Request: // query: AAGTTGTTCCT
Result: low value

Request: // query: AGGGGATCCCT
Result: high value

Request: // query: GGAAATGTCCC
Result: high value

Request: // query: CGGAAAACCCC
Result: high value

Request: // query: GGAAGTTTCCC
Result: high value
